Measured values drawn from PubChem BioAssay AID330 for this set.

Attribute: T/C
Tested on: P388 leukemia ip, CD2F1 mice, survival T/C
assay notes: NCI In Vivo Anticancer Drug Screen. Data for tumor model P388 Leukemia (intraperitoneal) in CD2F1 (CDF1) mice
condition description: endpoint: median survival time; dose: 200.0 mg/kg/injection; schedule: Q04DX003 (ip); vehicle: Klucel (hydroxypropylcellulose) (HPC); higher = longer survival
Inconclusive results and toxic doses are left out.
endpoint: T/C

[
  {
    "cpd smiles": "CCN(CC)Cc1c(C)[nH]c2c(ccc3cc4ccccc4cc32)c1=O",
    "endpoint": "T/C",
    "endpoint value": "97 % of control"
  },
  {
    "cpd smiles": "C=CCNc1nc(-c2ccc(OC)c(OC)c2)cs1",
    "endpoint": "T/C",
    "endpoint value": "103 % of control"
  },
  {
    "cpd smiles": "CCN(CC)/C([Se])=N/N=C(\\C)c1ccccn1",
    "endpoint": "T/C",
    "endpoint value": "102 % of control"
  },
  {
    "cpd smiles": "CS/C(=C1/C(=O)N(c2ccccc2)N=C1c1ccc(C)cc1)N1CC1",
    "endpoint": "T/C",
    "endpoint value": "94 % of control"
  },
  {
    "cpd smiles": "Nc1nc(Cl)cc(=O)[nH]1",
    "endpoint": "T/C",
    "endpoint value": "94 % of control"
  },
  {
    "cpd smiles": "CC(=O)NS(=O)(=O)c1ccc(C)cc1",
    "endpoint": "T/C",
    "endpoint value": "107 % of control"
  }
]

----------
Test system: P388 leukemia ip, CD2F1 mice, survival T/C
assay notes: NCI In Vivo Anticancer Drug Screen. Data for tumor model P388 Leukemia (intraperitoneal) in CD2F1 (CDF1) mice
condition description: endpoint: median survival time; dose: 100.0 mg/kg/injection; schedule: Q01DX009 (ip); vehicle: saline
Inconclusive results and toxic doses are left out. Rule for the calls: active = survival T/C of 150% or more; inactive = T/C below 125% in these data. Square brackets hold non-standard residues; d marks the D form. Peptide text beside a SMILES is read from it. ξ: configuration not given here. ξY = NC(Cc1ccc(O)cc1)C(=O)O
Possible outcomes: active, inactive

[
  {
    "compound": "COCC(=O)O",
    "category label": "inactive"
  },
  {
    "compound": "CCCCCCCCCCCCOC(=O)CN=C=O",
    "category label": "inactive"
  },
  {
    "compound": "O=C1CNC(=O)CN1",
    "category label": "inactive"
  },
  {
    "compound": "NCC(=O)NC(Cc1ccc(O)cc1)C(=O)O (stereo not given) (H-Gly-[ξY]-OH)",
    "category label": "inactive"
  },
  {
    "compound": "CN=C(C)NC1CCCCC1",
    "category label": "inactive"
  },
  {
    "compound": "NC(=O)c1cn[nH]c1N",
    "category label": "inactive"
  },
  {
    "compound": "O=c1cc[nH]c(=S)[nH]1.[Pd]",
    "category label": "inactive"
  },
  {
    "compound": "OCc1ccn2c1C(O)CC2 (stereo not given)",
    "category label": "active"
  },
  {
    "compound": "CCOC(OCC)c1ccc(-n2c(N)c(C#N)cnc2=S)c2c1OC2=NC=C(C#N)C#N",
    "category label": "inactive"
  },
  {
    "compound": "NCCC(=O)NC(Cc1cnc[nH]1)C(=O)O (stereo not given)",
    "category label": "inactive"
  }
]

----------
Tested on: P388 leukemia ip, CD2F1 mice, survival T/C
assay notes: NCI In Vivo Anticancer Drug Screen. Data for tumor model P388 Leukemia (intraperitoneal) in CD2F1 (CDF1) mice
condition description: endpoint: median survival time; dose: 200.0 mg/kg/injection; schedule: Q01DX005 (ip); vehicle: saline with Tween-80; higher = longer survival
Toxic doses and inconclusive results are not listed.

[
  {
    "molecule": "COc1c2c(c(OC)c3c1c(=O)c1ccccc1n3C)OCO2",
    "T/C": "100 % of control"
  },
  {
    "molecule": "CC/C(=N/OC)C(=O)OC",
    "T/C": "100 % of control"
  },
  {
    "molecule": "COc1ccc2ccc3nonc3c2c1",
    "T/C": "91 % of control"
  },
  {
    "molecule": "CN(C)C(=S)C(C)(C)C",
    "T/C": "106 % of control"
  },
  {
    "molecule": "Cc1cn2c(n1)sc1ccccc12",
    "T/C": "95 % of control"
  },
  {
    "molecule": "O=C(NN(CCN(NC(=O)c1ccccc1)C(=O)c1ccccc1)C(=O)c1ccccc1)c1ccccc1",
    "T/C": "96 % of control"
  },
  {
    "molecule": "O=C1C2CC3OC3CC2C(=O)N1CCN1C(=O)C2CC3OC3CC2C1=O (stereo not given)",
    "T/C": "104 % of control"
  },
  {
    "molecule": "CNC(=S)N/N=C1/CCOC(C)/C1=N\\NC(=S)NC (stereo not given)",
    "T/C": "92 % of control"
  },
  {
    "molecule": "CN(C)c1ccc(/C=N/NC(=O)CNC(=O)n2ccnc2)cc1",
    "T/C": "94 % of control"
  },
  {
    "molecule": "Cc1nc2c(N)cc(Cl)cc2[nH]1",
    "T/C": "120 % of control"
  },
  {
    "molecule": "ICC1CCCCC1CI (stereo not given)",
    "T/C": "104 % of control"
  },
  {
    "molecule": "COc1ccc(C2=NC(C)(C)CO2)cc1C",
    "T/C": "94 % of control"
  },
  {
    "molecule": "C=CCNC(=S)N/N=C(\\C)c1cccc(C)n1",
    "T/C": "112 % of control"
  },
  {
    "molecule": "CC1(C)OC2(C)CCC1C1C2N1C(=O)Nc1cccc2ccccc12 (stereo not given)",
    "T/C": "93 % of control"
  },
  {
    "molecule": "COc1ccc(C2N(c3ccccc3)CCN2c2ccccc2)cc1",
    "T/C": "93 % of control"
  },
  {
    "molecule": "O=c1ccc2cc3ccoc3c(OCCOCCOCCOCCOc3c4occc4cc4ccc(=O)oc34)c2o1",
    "T/C": "91 % of control"
  },
  {
    "molecule": "O=C1CN(CCCCl)CC(=O)N2Cc3ccccc3CN12",
    "T/C": "99 % of control"
  },
  {
    "molecule": "COc1ccccc1N/N=c1\\c2nc3ccccc3nc1n(-c1ccccc1C)c(=S)n2-c1ccc(Cl)cc1",
    "T/C": "103 % of control"
  },
  {
    "molecule": "CCOc1cc2c(cc1C(C)c1ccc(Cl)cc1)OCO2 (stereo not given)",
    "T/C": "93 % of control"
  },
  {
    "molecule": "Cc1c(C)c(C)c(S(=O)(=O)OCCCl)c(C)c1C",
    "T/C": "95 % of control"
  },
  {
    "molecule": "CN(/N=C1\\C(=O)Nc2ccccc21)c1ccccc1",
    "T/C": "88 % of control"
  },
  {
    "molecule": "CCN(CC)C(=O)c1cc2c(=O)c3c(ccc4ccccc43)oc2n(C)c1=O",
    "T/C": "90 % of control"
  },
  {
    "molecule": "O=C1CSc2nc3c(Cl)cc(Cl)cc3c(=O)n21",
    "T/C": "105 % of control"
  },
  {
    "molecule": "CCOC(=O)C(Cc1ccc(O)c(C#N)c1)NC(C)=O (stereo not given)",
    "T/C": "95 % of control"
  },
  {
    "molecule": "O=C(O)c1cccc(C(=O)O)c1S(=O)Cc1ccccc1 (stereo not given)",
    "T/C": "105 % of control"
  },
  {
    "molecule": "Nc1c(C(=O)NCc2ccccc2)c2nc3c(C(=O)NCc4ccccc4)ccc(Br)c3oc-2c(Br)c1=O",
    "T/C": "89 % of control"
  },
  {
    "molecule": "CCOC(=O)c1c(-c2ccccc2)nn(CC(N)=O)c1CO",
    "T/C": "103 % of control"
  },
  {
    "molecule": "COCOc1cccc2c1CCC2",
    "T/C": "100 % of control"
  },
  {
    "molecule": "O=C(c1ccccc1)C(C(=O)c1ccccc1)S(=O)(=O)c1ccccc1",
    "T/C": "91 % of control"
  },
  {
    "molecule": "O=c1[nH]nc(SCc2ccccc2)c2nncn12",
    "T/C": "95 % of control"
  },
  {
    "molecule": "CC(C)(C)C1=CC(N2CCOCC2)(C(C)(C)C)C=C(C(C)(C)C)C1=O",
    "T/C": "94 % of control"
  },
  {
    "molecule": "CC(C)(C)OC(=O)NC(CCC(N)=O)C(=O)ON1C(=O)CCC1=O (stereo not given)",
    "T/C": "104 % of control"
  },
  {
    "molecule": "COc1ccc2c(c1)CC/C(=C\\C1(Sc3ccccc3)CC1)C2O (stereo not given)",
    "T/C": "98 % of control"
  },
  {
    "molecule": "OC1COC(O)(CN2CCOCC2)C(O)C1O (stereo not given)",
    "T/C": "97 % of control"
  },
  {
    "molecule": "Cc1ccc2c(c1)Nc1c(ccc3ccccc13)S2",
    "T/C": "103 % of control"
  },
  {
    "molecule": "C=C1C(=C)C2OC1c1cc3c(cc12)C(=O)c1ccccc1C3=O",
    "T/C": "114 % of control"
  },
  {
    "molecule": "O=c1n(-c2ccccc2)c2nc3ccccc3nc2n1-c1ccc(Cl)c(Cl)c1",
    "T/C": "109 % of control"
  },
  {
    "molecule": "O=C(O)COc1cc(Cl)c(Cl)cc1Cl",
    "T/C": "97 % of control"
  },
  {
    "molecule": "COC(=O)CCCC1=NCCS1",
    "T/C": "112 % of control"
  },
  {
    "molecule": "CN(C)CC1C(=O)C2CCC1C2 (stereo not given)",
    "T/C": "108 % of control"
  },
  {
    "molecule": "CC1(C)c2ccccc2C(=O)c2ccccc21",
    "T/C": "103 % of control"
  },
  {
    "molecule": "O=C1C(Sc2ccccc2)C(c2ccccc2)C1Sc1ccccc1 (stereo not given)",
    "T/C": "99 % of control"
  },
  {
    "molecule": "O=C1c2ccccc2C(=O)C2C(=O)c3ccccc3C(=O)C12 (stereo not given)",
    "T/C": "103 % of control"
  },
  {
    "molecule": "COC(=O)C1=C(C(=O)OC)C2CCCOC2=C(C)C1 (stereo not given)",
    "T/C": "93 % of control"
  },
  {
    "molecule": "Oc1ccccc1N=Cc1ccc2c(c1)OCO2",
    "T/C": "110 % of control"
  }
]
